tested on: COLO 205; test: NCI tumour cell line growth inhibition, 48 h
Active and inactive are the calls of the source. No stated cut-off is given here; in the data, active = GI50 up to about 1.1 µM and inactive = higher.
Give one outcome, nothing more. List: t (active), f (inactive)

[
  {
    "Compound": "CCCCC(/C=N/NC(=N)N)CC.Cc1cc(O)c(C(C)C)cc1S(=O)(=O)O",
    "Group": "f"
  },
  {
    "Compound": "CN(C)c1ccc(C2C(Cl)C(=O)N2NC(=O)c2c(Cl)c(Cl)c(Cl)c(Cl)c2-c2nc3ccccc3[nH]2)cc1 (stereo not given)",
    "Group": "f"
  },
  {
    "Compound": "O=C1CC2(CCC(O)(c3ccc(Cl)cc3)C(C(=O)c3ccc(Cl)cc3)C2)C(=O)c2ccccc2N1 (stereo not given)",
    "Group": "f"
  }
]

Recorded test call requested for O=C1/C(=C/c2ccc(O)cc2)CCC1CNc1ccc(Cl)cc1 (stereo not given)
f

Recorded test call requested for COc1ccc2cc(CNCCOCCOCCNCc3ccc4cc(OC)ccc4c3)ccc2c1
t

Recorded test call requested for CC(C)C[C@H]1[C@@H](OCc2ccccc2)COS(=O)N1[C@H](C)c1ccccc1 (stereo not given in full)
f

# credit: ChEMBL document CHEMBL1201862
